ASSAY_SYSTEM: MAPK9 (human)
pKd: −log10 of the molar value.
ASSAY_READOUT: pKd

{"INPUT_SMILES": "CCOc1cc2ncc(C#N)c(Nc3ccc(F)c(Cl)c3)c2cc1NC(=O)/C=C/CN(C)C", "ASSAY_READOUT": "pKd", "OBSERVED_RESULT": "< 5.00"}

----------
ASSAY_SYSTEM: CAMK1 (human)
ASSAY_COMMENT: KINOMEscan competition binding

{"INPUT_SMILES": "O=C1c2ccccc2-c2n[nH]c3cccc1c23", "Kd": "> 10 µM"}
{"INPUT_SMILES": "Oc1ccc(-c2nc(-c3ccc(F)cc3)c(-c3ccncc3)[nH]2)cc1", "Kd": "> 10 µM"}
{"INPUT_SMILES": "CCOc1cc2ncc(C#N)c(Nc3ccc(F)c(Cl)c3)c2cc1NC(=O)/C=C/CN(C)C", "Kd": "> 10 µM"}

----------
# UniProtKB Q13131: pKd values follow
# Sequence (Q13131 whole entry, looked up): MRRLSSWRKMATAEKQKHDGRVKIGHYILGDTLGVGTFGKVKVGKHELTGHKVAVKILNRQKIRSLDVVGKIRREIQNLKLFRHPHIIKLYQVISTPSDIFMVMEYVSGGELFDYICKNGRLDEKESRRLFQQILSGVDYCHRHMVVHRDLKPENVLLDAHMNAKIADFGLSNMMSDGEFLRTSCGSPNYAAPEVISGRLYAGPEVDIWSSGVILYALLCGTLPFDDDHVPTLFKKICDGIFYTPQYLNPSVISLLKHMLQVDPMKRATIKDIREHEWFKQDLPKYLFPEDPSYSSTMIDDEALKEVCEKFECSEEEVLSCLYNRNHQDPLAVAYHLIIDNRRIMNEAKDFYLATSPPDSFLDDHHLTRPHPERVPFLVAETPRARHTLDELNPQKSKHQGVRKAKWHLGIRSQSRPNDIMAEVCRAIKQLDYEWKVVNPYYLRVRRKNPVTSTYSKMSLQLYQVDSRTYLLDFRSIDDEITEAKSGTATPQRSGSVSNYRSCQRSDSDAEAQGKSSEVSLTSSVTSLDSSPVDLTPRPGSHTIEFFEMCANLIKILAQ
pKd: −log10 of the molar value.

{"INPUT_SMILES": "Oc1ccc(-c2nc(-c3ccc(F)cc3)c(-c3ccncc3)[nH]2)cc1", "ASSAY_SYSTEM": "UniProtKB Q13131", "pKd": "< 5.00"}
{"INPUT_SMILES": "CCOc1cc2ncc(C#N)c(Nc3ccc(F)c(Cl)c3)c2cc1NC(=O)/C=C/CN(C)C", "ASSAY_SYSTEM": "UniProtKB Q13131", "pKd": "< 5.00"}
